Values were extracted from the Human Domainome abundance scans (Beltran et al. 2025).

B1: DnaJ homolog subfamily C member 5, residues 16 to 77; numbered along this chain, Q9H3Z4 (parent)
chain: LYHVLGLDKNATSDDIKKSYRKLALKYHPDKNPDNPEAADKFKEINNAHAILTDATKRNIYD

variants of: B1; assay: abundance fitness (aPCA) (normalised: wild type 0, dead -1); higher = more abundant; growth selection in yeast, the domain comes from the species named; details: Homo sapiens
measured.property: abundance fitness
Lab note: record just the number, no unit beside it.

Worked set:
# mutant.code, abundance fitness
records = [
    ("Y2K", -0.692),
    ("A38C", -0.401),
    ("Y20T", -0.236),
    ("N35V", -0.255),
    ("D14L", -0.238),
    ("A48Q", -0.82),
    ("L52M", -0.395),
    ("N46D", -0.578),
    ("H49Q", -0.161),
    ("G6L", -0.625),
]

Suppose we examine the variant D15I ; what abundance fitness value has been reported?
-0.328

Suppose we examine the variant N35T ; what abundance fitness value has been reported?
-0.143

Suppose we examine the variant K26V ; what abundance fitness value has been reported?
-0.13
